Data provenance: patent US11524962B2

assay: In vivo brain exposure study in mouse; conditions: po; mouse CD-1 male, 10 mg/kg p.o., plasma, 4 h; read-out: Plasma-4 h
Measure Name: concentration at 4 h (ng/mL)
One number for each entry, in ng/mL.

Entry Cc1ncnc2c1ccn2[C@@H]1O[C@H]([C@H](O)c2ccc3c(c2)CC3)[C@@H](O)[C@H]1O : reported concentration at 4 h = ?
53.6

----------
test system: Symmetric Di-Methyl Arginine (sDMA) marks in Granta-519 cells; assay: sDMA Western blot / In Cell Western in Granta-519 cells; type: cell-based; settings: Homo sapiens, 72 h; Granta-519, 3 days; read-out: sDMA_Granta IC50
Could you please report measured IC50 for the items listed next?
Reply with the number and its unit after it.

Cpd Smiles	IC50
Cc1ncnc2c1ccn2[C@@H]1O[C@H]([C@H](O)c2ccc3c(c2)CC3)[C@@H](O)[C@H]1O	33 nM
Nc1ncnc2c1ccn2[C@@H]1O[C@H]([C@H](O)c2ccc3c(c2)OCC3)[C@@H](O)[C@H]1O	203 nM
Nc1ncnc2c1ccn2[C@@H]1O[C@H]([C@H](O)c2ccc3c(c2)CC3)[C@@H](O)[C@H]1O	20 nM

Entry CNc1ncnc2c1ccn2[C@@H]1O[C@H]([C@H](O)c2ccc3c(c2)CC3)[C@@H](O)[C@H]1O : reported IC50 = ?
759 nM

----------
test: In vivo pharmacokinetic study in rat; conditions: Sprague-Dawley (SD), blood, iv; rat SD male, i.v. 0.5 mg/kg, cassette
Measure Name: clearance (mL/min/kg)
Answers are plain numbers, in mL/min/kg.

Entry C[C@@](O)(c1ccc2c(c1)CC2)[C@H]1O[C@@H](n2ccc3c(N)ncnc32)[C@H](O)[C@@H]1O : reported clearance = ?
56.2

----------
test: In vivo pharmacokinetic study in rat; details: Sprague-Dawley (SD), blood, iv; rat SD male, i.v. 0.5 mg/kg, cassette
Measure Name: half-life (min)
Numbers only, in min.

Entry C[C@@](O)(c1ccc2c(c1)CC2)[C@H]1O[C@@H](n2ccc3c(N)ncnc32)[C@H](O)[C@@H]1O : reported half-life = ?
21

----------
test: In vivo brain exposure study in mouse; conditions: po; mouse CD-1 male, 10 mg/kg p.o., cassette, plasma, 4 h; read-out: Plasma-4 h
Could you please report measured concentration at 4 h for the items listed next?
Numbers only, in ng/mL.

Cpd Smiles	Units Text	concentration at 4 h
Nc1ncnc2c1ccn2[C@@H]1O[C@H]([C@H](O)c2ccc3c(c2)CC3)[C@@H](O)[C@H]1O	ng/mL	802

Entry Nc1ncnc2c1c(F)cn2[C@@H]1O[C@H]([C@H](O)c2ccc3c(c2)CC3)[C@@H](O)[C@H]1O : reported concentration at 4 h = ?
138

----------
test: In vivo brain exposure study in mouse; details: po; mouse CD-1 male, 10 mg/kg p.o., brain, 4 h; read-out: Brain-4 h
Measure Name: concentration at 4 h (ng/g)
Numbers only, in ng/g.

Entry Cc1ncnc2c1ccn2[C@@H]1O[C@H]([C@H](O)c2ccc3c(c2)CC3)[C@@H](O)[C@H]1O [Example 11] : reported concentration at 4 h = ?
50.2

----------
assay: In vivo pharmacokinetic study in rat; conditions: Sprague-Dawley (SD), blood, iv; rat SD female, i.v. 0.2 mg/kg, cassette
Measure Name: half-life (min)
Numbers only, in min.

Entry Nc1ncnc2c1c(F)cn2[C@@H]1O[C@H]([C@H](O)c2ccc3c(c2)CC3)[C@@H](O)[C@H]1O : reported half-life = ?
101
